- MEASURED ON: T1, His-tagged mouse CD38 (ACRO Biosystems #CD8-M5223) (mouse, UniProt P56528 45-304)
- T1 construct: bought recombinant protein with His tag; also called Murine
- T1 sequence (looked up): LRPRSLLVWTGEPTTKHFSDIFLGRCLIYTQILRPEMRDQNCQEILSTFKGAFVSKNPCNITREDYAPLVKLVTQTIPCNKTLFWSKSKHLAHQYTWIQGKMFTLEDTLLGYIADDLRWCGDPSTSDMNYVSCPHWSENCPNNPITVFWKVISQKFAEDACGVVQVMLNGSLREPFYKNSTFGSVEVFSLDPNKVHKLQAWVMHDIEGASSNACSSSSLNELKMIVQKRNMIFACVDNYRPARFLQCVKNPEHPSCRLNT
- PROCEDURE TEXT: ELISA, coated His-CD38
MEASUREMENT TYPE: ELISA 1 ug/ml

| BINDER | MEASUREMENT TYPE | EXPERIMENTAL RESULT |
| --- | --- | --- |
| 40566p1.A12 (scFv, V domains shown, tested as scFv-Fc supernatant; also called 40566p1.Al2) VH: DVQLVESGGGVVRPGESLRLSCAASGFTFDNYDMTWVRQAPGEGLEWVSFISSRGTFTYYTDSVKGRFTISRDNSKNTLYLQMNSLRAEDTAIYYCTKDSGEYYFFDYWGLGTLVTVSS VL: EIVMTQSPATLSVSPGERATFSCRASQSVNSKLAWYQQKPGQAPRLLIYDASRRATGIPDRFSGSGSGTEFTLTISSLQSEDFAVYYCQQYYDWPPLTFGGGTKVEIK | ELISA 1 ug/ml | 1.99 |
| 40596p1.B1 (scFv, V domains shown, tested as scFv-Fc supernatant) VH: EVQLLESGGGLVEPGGSLRLSCAASGFDFSTYAMTWVRQAPGKGLEWVAGNGWSGSFIYYADSVKGRFTISRDNSKNTLYLQMNSLRAEDTAVYYCTRNPGFGEMDVWGQGTTVTVSS VL: EIVLTQSPGTLRLSPGERATLSCKASQTVGTTLAWYQQKPGQAPRLLIYGASTRATGIPDRFSGSGSGTEFTLTISSLQSEDFADYYCQQYKSWPPLTFGGGTKVEIK | ELISA 1 ug/ml | 1.76 |
| 40596p1.E4 (scFv, V domains shown, tested as scFv-Fc supernatant) VH: EVQLLESGGGLVQPGGSLRLSCAASGFDFSGSAMSWVRQAPGKGLEYVAGLGWSGSFIYYADSVKGRSTISRDNSKNTLYLQLNSLRAEDTAVYYCARNPGFGEMDVWGQGTTVTVSS VL: EIVLTQSPGSLSLSPGERATLSCRASQTVGSNLAWYQQKPGQAPRLLIYGASTRATDIPDRFSGSGSGTEFTLTISSLQSEDFAVYYCQQYNSWPPLTFGGGTKVEIK | ELISA 1 ug/ml | 1.72 |

Provenance of the data: patent US20220306762A1
